Data origin: patent US20150104459A1

testSystem: recombinant soluble homotrimeric HA, A/common magpie/Hong Kong/5052/07 (H5N1) (influenza A virus A/common magpie/Hong Kong/5052/2007 (H5N1))
methodNotes: microarray, trimeric HA, transfection supernatant
particulars: remark: other sources report otherwise
assayMetric: Trimeric HA Binding RLU

Below: 2 binders and their reported Trimeric HA Binding RLU.
binder="TCN-545 (5082_I15) (antibody, V domains shown) VH: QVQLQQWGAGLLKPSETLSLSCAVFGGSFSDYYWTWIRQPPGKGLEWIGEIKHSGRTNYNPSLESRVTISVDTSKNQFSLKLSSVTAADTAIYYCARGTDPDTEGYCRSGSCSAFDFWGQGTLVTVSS VL: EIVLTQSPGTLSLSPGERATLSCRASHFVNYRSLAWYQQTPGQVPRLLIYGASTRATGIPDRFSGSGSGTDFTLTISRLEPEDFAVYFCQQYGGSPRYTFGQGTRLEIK" assaymetric="Trimeric HA Binding RLU" result="1390 RLU"
binder="TCN-537 (3194_D21) (antibody, V domains shown) VH: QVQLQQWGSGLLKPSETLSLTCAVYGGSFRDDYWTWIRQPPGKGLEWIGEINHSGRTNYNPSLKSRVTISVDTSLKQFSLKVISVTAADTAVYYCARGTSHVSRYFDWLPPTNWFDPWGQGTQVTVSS VL: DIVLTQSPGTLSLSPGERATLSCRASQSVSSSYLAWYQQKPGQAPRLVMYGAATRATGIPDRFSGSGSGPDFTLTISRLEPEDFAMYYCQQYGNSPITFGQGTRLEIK" assaymetric="Trimeric HA Binding RLU" result="2070 RLU"

Read the next record carefully.
Request: Using the record for TCN-550 (5096_F06) (antibody, V domains shown) VH: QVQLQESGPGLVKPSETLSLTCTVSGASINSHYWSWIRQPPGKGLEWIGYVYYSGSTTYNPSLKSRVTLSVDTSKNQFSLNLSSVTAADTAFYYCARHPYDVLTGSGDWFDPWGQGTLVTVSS VL: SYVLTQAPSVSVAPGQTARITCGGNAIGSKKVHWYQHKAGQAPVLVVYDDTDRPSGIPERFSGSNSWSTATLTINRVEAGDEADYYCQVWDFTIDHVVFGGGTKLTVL , report its Trimeric HA Binding RLU.
Result: 993 RLU
